Listed next: entries and their corresponding log10 MIC.
# System: Staphylococcus aureus
# assay_info: Antibacterial activity against methicillin-sensitive Staphylococcus aureus ATCC 29213 after 18 hrs by broth microdilution method
# Assay type: functional
# condition_summary: ATCC 29213, 18 h
In plain terms, each number is the log10 of measured MIC in µg/mL.

Query: Tell me its log10 MIC given "CC(=O)N[C@H]1[C@H](O[C@@H]2c3ccc(c(Cl)c3)Oc3cc4cc(c3O)Oc3ccc(cc3Cl)C[C@H]3NC(=O)[C@H](n5cc(COc6ccc(-c7ccccc7)cc6)nn5)c5ccc(O)c(c5)Oc5cc(O)cc(c5)[C@H](NC3=O)C(=O)N[C@H]4C(=O)N[C@H]3C(=O)N[C@@H]2C(=O)N[C@@H](C(=O)O)c2cc(O)cc(O)c2-c2cc3ccc2O)O[C@H](CO)[C@@H](O)[C@@H]1O" as the entry.
Response: -0.30

Query: Tell me its log10 MIC given "CCCCCCCCCCOCc1cn([C@H]2C(=O)N[C@@H]3Cc4ccc(c(Cl)c4)Oc4cc5cc(c4O)Oc4ccc(cc4Cl)[C@@H](O[C@@H]4O[C@H](CO)[C@@H](O)[C@H](O)[C@H]4NC(C)=O)[C@@H]4NC(=O)[C@H](NC(=O)[C@@H]5NC(=O)[C@@H](NC3=O)c3cc(O)cc(c3)Oc3cc2ccc3O)c2ccc(O)c(c2)-c2c(O)cc(O)cc2[C@H](C(=O)OC)NC4=O)nn1" as the entry.
Response: 0.00

---

# Tested on: Bacillus subtilis
# assay_info: Bactericidal activity against Bacillus subtilis ATCC 6633 after overnight incubation
# Type: functional
Listed next: entries and their corresponding MBC.
# value in µg/mL; strip the unit string

compound: CC(=O)N[C@H]1[C@H](O[C@@H]2c3ccc(c(Cl)c3)Oc3cc4cc(c3O)Oc3ccc(cc3Cl)C[C@H]3NC(=O)[C@H](N=[N+]=[N-])c5ccc(O)c(c5)Oc5cc(O)cc(c5)[C@H](NC3=O)C(=O)N[C@H]4C(=O)N[C@H]3C(=O)N[C@@H]2C(=O)N[C@@H](C(=O)O)c2cc(O)cc(O)c2-c2cc3ccc2O)O[C@H](CO)[C@@H](O)[C@@H]1O
study_target: Bacillus subtilis
readout: MBC
unit: µg/mL
reported_result: 32
//
compound: CCCCCCCCCCOCc1cn([C@H]2C(=O)N[C@@H]3Cc4ccc(c(Cl)c4)Oc4cc5cc(c4O)Oc4ccc(cc4Cl)[C@@H](O[C@@H]4O[C@H](CO)[C@@H](O)[C@H](O)[C@H]4NC(C)=O)[C@@H]4NC(=O)[C@H](NC(=O)[C@@H]5NC(=O)[C@@H](NC3=O)c3cc(O)cc(c3)Oc3cc2ccc3O)c2ccc(O)c(c2)-c2c(O)cc(O)cc2[C@H](C(=O)O)NC4=O)nn1
study_target: Bacillus subtilis
readout: MBC
unit: µg/mL
reported_result: 0.25
//
compound: COC(=O)[C@@H]1NC(=O)[C@H]2NC(=O)[C@H](NC(=O)[C@@H]3NC(=O)[C@H]4NC(=O)[C@@H](Cc5ccc(c(Cl)c5)Oc5cc3cc(c5O)Oc3ccc(cc3Cl)[C@H]2O[C@@H]2O[C@H](CO)[C@@H](O)[C@H](O)[C@H]2NC(C)=O)NC(=O)[C@H](N=[N+]=[N-])c2ccc(O)c(c2)Oc2cc(O)cc4c2)c2ccc(O)c(c2)-c2c(O)cc(O)cc21
study_target: Bacillus subtilis
readout: MBC
unit: µg/mL
reported_result: 8
//
compound: COC(=O)[C@H]1NC(=O)[C@H]2NC(=O)[C@H](NC(=O)[C@@H]3NC(=O)[C@H]4NC(=O)[C@H](NC(=O)[C@H](N=[N+]=[N-])c5ccc(O)c(c5)Oc5cc4cc(O)c5C)[C@H](O)c4ccc(cc4)Oc4cc3cc(c4O)Oc3ccc(cc3)[C@H]2O)c2ccc(O)c(c2)-c2c(O)cc(O)cc21
study_target: Bacillus subtilis
readout: MBC
unit: µg/mL
reported_result: 1

Query: Tell me its MBC given "CC(=O)N[C@H]1[C@H](O[C@@H]2c3ccc(c(Cl)c3)Oc3cc4cc(c3O)Oc3ccc(cc3Cl)C[C@H]3NC(=O)[C@H](n5cc(COc6ccc(-c7ccccc7)cc6)nn5)c5ccc(O)c(c5)Oc5cc(O)cc(c5)[C@H](NC3=O)C(=O)N[C@H]4C(=O)N[C@H]3C(=O)N[C@@H]2C(=O)N[C@@H](C(=O)O)c2cc(O)cc(O)c2-c2cc3ccc2O)O[C@H](CO)[C@@H](O)[C@@H]1O" as the entry.
Response: 0.25

---

# Tested on: Enterococcus faecalis
# assay_info: Antibacterial activity against vancomycin-resistant and teicoplanin-sensitive Enterococcus faecalis ATCC 51299 harboring vanB gene after 18 hrs by broth microdilution method
# Format: functional
# condition_summary: ATCC 51299, 18 h
Listed next: entries and their corresponding MIC.
# value in µg/mL; strip the unit string

compound: COC(=O)[C@H]1NC(=O)[C@H]2NC(=O)[C@H](NC(=O)[C@@H]3NC(=O)[C@H]4NC(=O)[C@H](NC(=O)[C@H](N=[N+]=[N-])c5ccc(O)c(c5)Oc5cc4cc(O)c5C)[C@H](O)c4ccc(cc4)Oc4cc3cc(c4O)Oc3ccc(cc3)[C@H]2O)c2ccc(O)c(c2)-c2c(O)cc(O)cc21
MIC [µg/mL]: 128

Query: Tell me its MIC given "CCCCCCCCCCOCc1cn([C@H]2C(=O)N[C@@H]3Cc4ccc(c(Cl)c4)Oc4cc5cc(c4O)Oc4ccc(cc4Cl)[C@@H](O)[C@@H]4NC(=O)[C@H](NC(=O)[C@@H]5NC(=O)[C@@H](NC3=O)c3cc(O)cc(c3)Oc3cc2ccc3O)c2ccc(O)c(c2)-c2c(O)cc(O)cc2[C@H](C(=O)OC)NC4=O)nn1" as the entry.
Response: 64

---

# System: Enterococcus faecalis
# assay_info: Antibacterial activity against vancomycin-resistant and teicoplanin-sensitive Enterococcus faecalis ATCC 51299 harboring vanB gene after 18 hrs by broth microdilution method
# Format: functional
# condition_summary: ATCC 51299, 18 h
readout: MIC (µg/mL)
# value in µg/mL; strip the unit string

compound: COC(=O)[C@@H]1NC(=O)[C@H]2NC(=O)[C@H](NC(=O)[C@@H]3NC(=O)[C@H]4NC(=O)[C@@H](Cc5ccc(c(Cl)c5)Oc5cc3cc(c5O)Oc3ccc(cc3Cl)[C@H]2O[C@@H]2O[C@H](CO)[C@@H](O)[C@H](O)[C@H]2NC(C)=O)NC(=O)[C@H](N=[N+]=[N-])c2ccc(O)c(c2)Oc2cc(O)cc4c2)c2ccc(O)c(c2)-c2c(O)cc(O)cc21
study_target: Enterococcus faecalis
MIC, µg/mL: 16
//
compound: COC(=O)[C@@H]1NC(=O)[C@H]2NC(=O)[C@H](NC(=O)[C@@H]3NC(=O)[C@H]4NC(=O)[C@@H](Cc5ccc(c(Cl)c5)Oc5cc3cc(c5O)Oc3ccc(cc3Cl)[C@H]2O)NC(=O)[C@H](N=[N+]=[N-])c2ccc(O)c(c2)Oc2cc(O)cc4c2)c2ccc(O)c(c2)-c2c(O)cc(O)cc21
study_target: Enterococcus faecalis
MIC, µg/mL: 128
//
compound: CC(=O)N[C@H]1[C@H](O[C@@H]2c3ccc(c(Cl)c3)Oc3cc4cc(c3O)Oc3ccc(cc3Cl)C[C@H]3NC(=O)[C@H](N=[N+]=[N-])c5ccc(O)c(c5)Oc5cc(O)cc(c5)[C@H](NC3=O)C(=O)N[C@H]4C(=O)N[C@H]3C(=O)N[C@@H]2C(=O)N[C@@H](C(=O)O)c2cc(O)cc(O)c2-c2cc3ccc2O)O[C@H](CO)[C@@H](O)[C@@H]1O
study_target: Enterococcus faecalis
MIC, µg/mL: 64
//
compound: CN[C@H](CC(C)C)C(=O)N[C@H]1C(=O)N[C@@H](CC(N)=O)C(=O)N[C@H]2C(=O)N[C@H]3C(=O)N[C@H](C(=O)N[C@H](C(=O)O)c4cc(O)cc(O)c4-c4cc3ccc4O)[C@H](O)c3ccc(c(Cl)c3)Oc3cc2cc(c3O[C@@H]2O[C@H](CO)[C@@H](O)[C@H](O)[C@H]2O[C@H]2C[C@](C)(N)[C@H](O)[C@H](C)O2)Oc2ccc(cc2Cl)[C@H]1O
study_target: Enterococcus faecalis
MIC, µg/mL: 16

Next item in the queue.
Query: Tell me its MIC given "CC(=O)N[C@H]1[C@H](O[C@@H]2c3ccc(c(Cl)c3)Oc3cc4cc(c3O)Oc3ccc(cc3Cl)C[C@H]3NC(=O)[C@H](n5cc(COc6ccc(-c7ccccc7)cc6)nn5)c5ccc(O)c(c5)Oc5cc(O)cc(c5)[C@H](NC3=O)C(=O)N[C@H]4C(=O)N[C@H]3C(=O)N[C@@H]2C(=O)N[C@@H](C(=O)O)c2cc(O)cc(O)c2-c2cc3ccc2O)O[C@H](CO)[C@@H](O)[C@@H]1O" as the entry.
Response: 0.5

---

# System: Enterococcus faecalis
# assay_info: Bactericidal activity against vancomycin and teicoplanin-sensitive Enterococcus faecalis ATCC 29212 after overnight incubation
# Type: functional
Listed next: entries and their corresponding MBC.
# value in µg/mL; strip the unit string

molecule: CC(=O)N[C@H]1[C@H](O[C@@H]2c3ccc(c(Cl)c3)Oc3cc4cc(c3O)Oc3ccc(cc3Cl)C[C@H]3NC(=O)[C@H](n5cc(COc6ccc(-c7ccccc7)cc6)nn5)c5ccc(O)c(c5)Oc5cc(O)cc(c5)[C@H](NC3=O)C(=O)N[C@H]4C(=O)N[C@H]3C(=O)N[C@@H]2C(=O)N[C@@H](C(=O)O)c2cc(O)cc(O)c2-c2cc3ccc2O)O[C@H](CO)[C@@H](O)[C@@H]1O
MBC (µg/mL): 0.25

molecule: CC(=O)N[C@H]1[C@H](O[C@@H]2c3ccc(c(Cl)c3)Oc3cc4cc(c3O)Oc3ccc(cc3Cl)C[C@H]3NC(=O)[C@H](N=[N+]=[N-])c5ccc(O)c(c5)Oc5cc(O)cc(c5)[C@H](NC3=O)C(=O)N[C@H]4C(=O)N[C@H]3C(=O)N[C@@H]2C(=O)N[C@@H](C(=O)O)c2cc(O)cc(O)c2-c2cc3ccc2O)O[C@H](CO)[C@@H](O)[C@@H]1O
MBC (µg/mL): 32

molecule: CN[C@H](CC(C)C)C(=O)N[C@H]1C(=O)N[C@@H](CC(N)=O)C(=O)N[C@H]2C(=O)N[C@H]3C(=O)N[C@H](C(=O)N[C@H](C(=O)O)c4cc(O)cc(O)c4-c4cc3ccc4O)[C@H](O)c3ccc(c(Cl)c3)Oc3cc2cc(c3O[C@@H]2O[C@H](CO)[C@@H](O)[C@H](O)[C@H]2O[C@H]2C[C@](C)(N)[C@H](O)[C@H](C)O2)Oc2ccc(cc2Cl)[C@H]1O [VANCOMYCIN]
MBC (µg/mL): 16

Next item in the queue.
Query: Enter measured MBC, system Enterococcus faecalis, for the molecule shown: "CCCCCCCCCCOCc1cn([C@H]2C(=O)N[C@@H]3Cc4ccc(c(Cl)c4)Oc4cc5cc(c4O)Oc4ccc(cc4Cl)[C@@H](O[C@@H]4O[C@H](CO)[C@@H](O)[C@H](O)[C@H]4NC(C)=O)[C@@H]4NC(=O)[C@H](NC(=O)[C@@H]5NC(=O)[C@@H](NC3=O)c3cc(O)cc(c3)Oc3cc2ccc3O)c2ccc(O)c(c2)-c2c(O)cc(O)cc2[C@H](C(=O)OC)NC4=O)nn1"
Response: 256
